Cited source: the supplement of paper PMC9170038

- Tested on: MS2 coat protein
- assay.name: apparent KD of MS2 coat protein; higher = weaker reporter binding
- experimental.parameters: Eterna round: R107; input ligand: theophylline 20 uM
Would you mind classing the entries by apparent KD of MS2 coat protein? Ranges: LOW: < 0.03 µM; MID: ≥ 0.03 µM and < 0.1 µM; HIGH: ≥ 0.1 µM

Below are worked cases with known answers.
>>> class_label("CGGGCCGCUGCGGAUACCAGUUGAGCAUAGGUAGUGUAUGACAUGAGGAUCACCCAUGUUAACCCUUGGCAGCCGAGAGGGCAGA [theeternabot_exclusion_MS2_Theo_B_13]")
"LOW"
>>> class_label("CCUCACAUGAGGAUCACCCAUGUCUUUACACGAGGACCGGUACGGCCGCCACUCGUUCACAAAACAACCAGAAGUGAUGCCUACA [theeternabot_sameState_MS2_Trp_A_14]")
"HIGH"
>>> class_label("AACAUGAGGAUCACCCAUGUCUGAACUGAAGGAGCGCUAAAUAAGGCAGGUAGGUCGCGGAAUUUUGUAUAUAUAUAUAUAUGGG [9.F]")
"LOW"
>>> class_label("AUCUAUAGAGCGGCCGCCACUGAAUACAUGAGGAUCACCCAUGUAAUGUUAAGGUGGUCCUAGCUCAGGACCGGGCUCUAUAGAU [Tryp B Ex t4]")
"MID"

// query Input UACAUGAGGAUCACCCAUGUCCCAUGUGAACGAGGACCGGUACGGCCGCCACUCGAAUAAGGCGGCACAUGAGGAUCACCCACAU [AstrosSSTry#2] ; output its category
// result HIGH

// query Input AGCCACUCGAGUGAUCCUCACGAGUGGCAACGAGGACCGGUACGGCCGCCACUCGAAUCAACAUGAGGAUCACCCAUGUAAUAAU [Brourdmod01] ; output its category
// result HIGH

// query Input UUAUUUAACGGAAGGAGCGCGGAAAUUAAAGUGGGUAAACAUGAGGAUCACCCAUGUAAACCGCAGGUAGGUCGCCGAUAUUUAU [#22 Exclusion - Arginine B] ; output its category
// result MID

// query Input GAGCUGAUGUAGAGCCUUUAGUUCUGAGAUACCAGUACAGAAAUGUACCCUUGGCAGCUCAGCUUUACAUGAGGAUCACCCAUGU [Ex Theophylline A 17] ; output its category
// result LOW

// query Input UGUGACAUGAGGAUCACCCAUGUAAGGGAAGGAGCGCCGAAUAAGGCAGGUAGGUCGCCCAAGAUAGAAGAAUAAUAAGAUUGUG [Arginine A Same State; Euphoria Solution] ; output its category
// result MID

// query Input ACAUGAGGAUCACCCAUGUAACGGCAUAAUCGAGGACCGGUACGGCCGCCACUCGGAAUCAGUGACAGGCAUAUUUAUUAUAAGA [Eclusion - Tryptophan A / A] ; output its category
// result LOW

// query Input AGCGACAUGCGUGAUACCAGCUACAUGAGGAUCACCCAUGUCAGCAGGGAACUGCUGUGUAGCCCUUGGCAGCACAGUGCAUGUC [Exclusion - Theophylline B (Freestyle 29)] ; output its category
// result LOW

// query Input CCAUGCAGGUCGGCCGCCACUACACACAUGAGGAUCACCCAUGUAGUUACUGGGUGAAGUGGCAGUAGGACCGGGACCUGCAUAC [Brourdmod12] ; output its category
// result HIGH
